System: SK-MEL-2 melanoma
Use one of these outcomes when replying: T for active, F for inactive

Some entries whose results are on file:
* C[C@@H](NC(=O)c1ncnc(N)c1Cl)c1ncc(C(=O)Nc2cc(C(F)(F)F)c(Cl)cn2)s1 | F
* CC(c1ccccc1)[C@@H](C(=O)Nc1ccc(I)cc1F)N1C(=O)N[C@H](c2ccc(OC[C@H](O)CO)cc2)C1=O (stereo partly drawn) | T
* C=C1C(=O)O[C@H]2[C@H]1CC/C(Cn1cc(-c3cccc(Cl)c3)nn1)=C\CC[C@@]1(C)O[C@@H]21 | F
* COc1ccc(Cl)cc1Nc1nc(C(F)(F)F)ccc1C(=O)N/N=C/c1cccnc1 | F
* CCCCN=C(N)c1ccc(N2CCCN(c3ccc(C(N)=NCCCC)cc3)CC2)cc1 | F

## Task Answer briefly: the call reported for COc1ccccc1/C=C/C1=C(C)CCC(c2ccccc2OC)C1C (stereo not drawn) in this assay.
## Result T

## Task Recorded call for Cc1ccc(-c2nc3cc(Cl)c(Cl)cc3nc2C#N)cc1 ?
## Result F

## Task Record request — test call for COc1ccc(-c2[nH]nc(N)c2-c2cc(OC)c3c(c2)OCO3)cc1
## Result F
